Target: Coagulation factor X (Homo sapiens)
Sequence (P00742 41-179 limits assumed): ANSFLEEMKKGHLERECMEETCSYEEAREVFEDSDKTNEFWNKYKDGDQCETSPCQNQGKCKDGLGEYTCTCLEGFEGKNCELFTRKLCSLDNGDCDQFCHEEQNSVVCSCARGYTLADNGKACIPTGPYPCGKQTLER
Sequence (P00742 235-488 limits assumed): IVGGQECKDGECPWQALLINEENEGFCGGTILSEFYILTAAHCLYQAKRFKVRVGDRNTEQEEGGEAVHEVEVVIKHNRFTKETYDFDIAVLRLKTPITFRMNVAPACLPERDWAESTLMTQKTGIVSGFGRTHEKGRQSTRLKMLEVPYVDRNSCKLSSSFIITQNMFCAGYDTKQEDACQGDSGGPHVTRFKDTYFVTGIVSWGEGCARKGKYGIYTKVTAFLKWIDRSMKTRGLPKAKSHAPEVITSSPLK
pIC50: −log10 of the molar value.
readout.name: pIC50

1. CN1CCN=C1c1ccc(C(=O)N2CCN(S(=O)(=O)c3cc4ccc(Cl)cc4s3)CC2CC(=O)N2CCN(c3ccncc3)CC2)cc1 (centres undefined); 8.10
2. N=C(c1ccc(C(=O)N2CCN(S(=O)(=O)c3ccc4cc(Br)ccc4c3)CC2)cc1)N1CCOCC1; 6.19
3. COC(=O)CC1CN(S(=O)(=O)c2cc3ccc(Cl)cc3s2)CCN1C(=O)c1ccc(C2=NCCN2C)cc1 (centres undefined); 7.89
4. CN1CCN=C1c1ccc(C(=O)N2CCN(S(=O)(=O)c3cc4cc(Cl)ccc4[nH]3)CC2CC(=O)N2CCC2)cc1 (centres undefined); 8.30
